Target: Tumor necrosis factor receptor superfamily member 10B (Homo sapiens) (UniProt O14763)
Sequence (O14763 whole entry, looked up): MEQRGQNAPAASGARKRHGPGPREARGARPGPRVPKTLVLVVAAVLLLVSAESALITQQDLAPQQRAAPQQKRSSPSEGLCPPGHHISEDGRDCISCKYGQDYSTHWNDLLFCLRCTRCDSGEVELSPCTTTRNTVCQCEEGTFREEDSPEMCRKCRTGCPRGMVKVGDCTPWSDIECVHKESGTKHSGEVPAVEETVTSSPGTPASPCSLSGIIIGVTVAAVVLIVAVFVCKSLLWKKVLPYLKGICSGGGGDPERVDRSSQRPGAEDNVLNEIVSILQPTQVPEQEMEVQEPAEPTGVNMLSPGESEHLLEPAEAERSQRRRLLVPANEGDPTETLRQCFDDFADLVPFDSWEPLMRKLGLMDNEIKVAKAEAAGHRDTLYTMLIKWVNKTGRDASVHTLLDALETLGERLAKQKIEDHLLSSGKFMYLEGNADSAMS
Experiment: caspase-8 TRAIL sensitization, hit retest, confirmation, cell-based, NB7+caspase-8, with/without TRAIL, luminescence panel (AID 651596)
Conditions: NB7 neuroblastoma + caspase-8, TRAIL sensitization, luminescence viability, with TRAIL, mean of runs, at 10 µM, stronger effect = higher value
Consider the cut-off 60%. If the recorded activity is strictly smaller, the label is Criterion met; if not, the label is Criterion not met.

Examples with answers:
{"molecule": "Cc1ccc(C(C)C)c(OCC(=O)Nc2ccc3c(c2)nc(CCN2CCCCC2)n3C)c1", "category_label": "Criterion met"}
{"molecule": "O=C(Nc1ccc2c(c1)OCCO2)C(=O)c1c[nH]c2ccccc12", "category_label": "Criterion not met"}
{"molecule": "Cc1c(C(=O)Nc2cccc([N+](=O)[O-])c2)csc1-c1ccccc1", "category_label": "Criterion met"}

Decide: activity of `O=c1c2c(nc3cc(-c4ccc(F)cc4)[nH]n13)CCCC2` strictly below 60%?
Criterion not met

Decide: activity of `Cc1nc(NC(=O)c2cc3ccccc3o2)sc1C` strictly below 60%?
Criterion not met

Decide: activity of `Cc1nnc(NC(=O)c2nc(S(=O)(=O)Cc3ccccc3C)ncc2Cl)s1` strictly below 60%?
Criterion not met

---

Assay: TRAIL sensitizers in caspase-8 expressing neuroblastoma cells, dose response, NB7 cells plus caspase-8, luminescence, panel (AID 652002)
Details: NB7 neuroblastoma +caspase-8, no TRAIL, compound-alone cytotoxicity counter-screen, luminescence viability, NB7+Caspase-8, run 1; at 12.5 µM (top of the series) unless noted
Overview of reported activity, % sensitization across a group of compounds:
Write the figure, then the unit, nothing else.

A selection of reference data follows.
{"molecular_string": "CCOC(=O)c1sc(NC(=O)c2cc(-c3ccccc3C)nc3ccccc23)c(C#N)c1C", "measure_name": "activity, % sensitization", "result": "4.11%"}
{"molecular_string": "Cn1c(=O)c2c(SCC(=O)Nc3ccccc3F)nc(C3CC3)nc2n(C)c1=O", "measure_name": "activity, % sensitization", "result": "-1.87%"}
{"molecular_string": "O=C(NC(=O)c1ccccc1)Nc1ccccc1", "measure_name": "activity, % sensitization", "result": "7.63%"}

The compound listed as `CCOC(=O)C(=C1Nc2ccccc2N1)n1c(-c2cccnc2)nc2ccccc21` shows activity, % sensitization equal to -4.97%

The compound listed as `Cc1cc(-c2ccccc2)nc(Nc2nc3c(C)cccc3c(=O)[nH]2)n1` shows activity, % sensitization equal to 22.2%

---

Overview of reported activity across a group of compounds:
Molecular target: Tumor necrosis factor receptor superfamily member 10B (Homo sapiens) (UniProt O14763)
Experiment: caspase-8 TRAIL sensitization, hit retest, confirmation, cell-based, NB7+caspase-8, with/without TRAIL, luminescence panel (AID 651596)
Conditions: NB7 neuroblastoma + caspase-8, TRAIL sensitization, luminescence viability, with TRAIL, mean of runs, at 10 µM, stronger effect = higher value
Give the value in % but do not write % after it.

{"compound": "Cc1c(P(=S)(c2ccccc2)c2ccccc2)[n+]2ccccc2n1CCc1ccccc1", "unit_abbrev": "%", "activity": 52}

The compound listed as `c1ccc2nc(-c3ccc(N4CCOCC4)cc3)ccc2c1` shows activity equal to 72.2

The compound listed as `COc1ccc(/C=N/Nc2cc(OC)ncn2)cc1` shows activity equal to 53.9

The compound listed as `O=C(CSc1nnc(NC(=O)c2ccc3c(c2)OCO3)s1)NCc1ccco1` shows activity equal to 85.4

The compound listed as Cc1ccc(C2CC(c3cccs3)=NN2C(=O)CCl)cc1 (stereo unspecified) shows activity equal to 98.8

The compound listed as `Cc1ccc(CS(=O)(=O)c2ncc(Cl)c(C(=O)Nc3nnc(C(C)C)s3)n2)cc1` shows activity equal to 67.5

The compound listed as `NC(=O)c1ccccc1N/C=C/C(=O)c1ccccc1` shows activity equal to 73.4

The compound listed as `CS(=O)(=O)c1ccc2nc(NC(=O)c3ccco3)sc2c1` shows activity equal to 61

---

Assay: activators of apoptotic CHOP UPR arm, confirmation, cell-based, CHO-CHOP luciferase reporter, single concentration (AID 463112);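 also: 0% = DMSO wells and 100% = tunicamycin 10 µg/mL wells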
Conditions: CHO-CHOP cells, CHOP-luciferase reporter luminescence; at 10 µM; stronger effect = higher value; percent of tunicamycin response, DMSO as zero
The other results are listed elsewhere or left out. Active and inactive are the calls of the source. Cut-off read from the data, not from the text of the source: active = activation above about 33%; inactive = the rest.
measure_name: activation

A selection of reference data follows.
{"compound": "O=C(CSc1cccc2cccnc12)N/N=C/c1cccnc1", "activation": "265% (active)"}
{"compound": "CCOc1ccc(N2C(=O)CC(N(O)c3ccccc3)C2=O)cc1 (stereo unspecified)", "activation": "186% (active)"}
{"compound": "Oc1ccc(/C=N/Nc2ccc(C(F)(F)F)cn2)cc1O", "activation": "68.9% (active)"}

The compound listed as `CC(=O)/C(=N\Nc1ccc(Cl)cc1Cl)Sc1cccc2cccnc12` shows activation equal to 184% (active)

The compound listed as `CS(=O)(=O)N(Cc1ccccc1)c1ccc(C(=O)NN=C2CCCCCC2)cc1` shows activation equal to -1.8% (inactive)

The compound listed as `CC1(C)CCSC(/C=C/c2ccccc2)=N1` shows activation equal to 68% (active)

---

Overview of reported inhibition across a group of molecules:
Target: PEG-3 (UniProt Q6IN02)
Sequence (Q6IN02 whole entry, looked up): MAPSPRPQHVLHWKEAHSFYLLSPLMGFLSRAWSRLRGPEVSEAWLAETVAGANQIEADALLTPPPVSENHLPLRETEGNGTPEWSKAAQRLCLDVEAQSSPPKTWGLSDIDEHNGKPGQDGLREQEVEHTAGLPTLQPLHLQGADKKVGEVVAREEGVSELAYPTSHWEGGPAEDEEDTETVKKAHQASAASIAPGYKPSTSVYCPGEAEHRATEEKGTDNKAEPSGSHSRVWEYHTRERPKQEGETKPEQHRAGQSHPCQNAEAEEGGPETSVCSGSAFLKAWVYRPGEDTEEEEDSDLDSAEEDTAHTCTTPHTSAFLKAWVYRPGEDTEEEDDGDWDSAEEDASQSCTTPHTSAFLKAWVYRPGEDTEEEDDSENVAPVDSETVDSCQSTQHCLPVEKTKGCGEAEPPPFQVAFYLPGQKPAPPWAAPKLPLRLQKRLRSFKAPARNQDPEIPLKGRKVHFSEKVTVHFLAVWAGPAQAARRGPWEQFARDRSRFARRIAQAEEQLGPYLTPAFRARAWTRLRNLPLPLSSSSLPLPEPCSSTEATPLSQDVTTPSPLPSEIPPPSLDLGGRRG
Test: Peg3 promoter luciferase inhibitors, potency, dose response, cell-based, HeLa, CREF/GAPDH counter-screen panel (AID 624167)
Conditions: CREF/GAPDH counter-screens; HeLa PEG-Prom luciferase reporter, overnight, run 1, dose range 1, at 100 µM (top of the series) unless noted
Give the value in % but do not write % after it.

{"molecule": "O=C(Nc1ccccc1)NN(C(=O)CCl)c1ccccc1", "inhibition, %": 102}
{"molecule": "Cc1cccc(C)c1NC(=O)c1nc(S(=O)(=O)Cc2ccccc2)ncc1Cl", "inhibition, %": 102}
{"molecule": "CCN(Cc1ccccc1)S(=O)(=O)c1ccc(C(=O)N(CCCN(C)C)c2nc3cc4c(cc3s2)OCO4)cc1", "inhibition, %": 102}
{"molecule": "Cc1ccccc1OCC(O)CNC1CCC(NCC(O)COc2ccccc2C)CC1 (configuration not stated)", "inhibition, %": 94.1}
{"molecule": "Cc1ccccc1OCC(=O)Nc1cccc(C(=O)O)c1", "inhibition, %": 99.1}
{"molecule": "O=C(Cn1ncc(Cl)c(Cl)c1=O)N1CCN(Cc2ccccc2)CC1", "inhibition, %": 95.2}
{"molecule": "O=S(=O)(NC1CC(NS(=O)(=O)OCC(Cl)(Cl)Cl)C2CCCCC12)OCC(Cl)(Cl)Cl (configuration not stated)", "inhibition, %": 102}
{"molecule": "COc1ccc(CC(=O)N(Cc2ccccc2)c2ccccc2)cc1S(=O)(=O)N1CCOCC1", "inhibition, %": 82.4}

The molecule listed as CN(C)CC(O)COc1ccc(C(C)(C)c2ccc(OCC(O)CN(C)C)cc2)cc1 (configuration not stated) shows inhibition equal to 101

The molecule listed as `CCCN(CC(=O)Nc1ccccc1C)C(=O)CCl` shows inhibition equal to 101

The molecule listed as `Cc1ccc2sc(N(CCCN(C)C)C(=O)c3ccc(S(=O)(=O)N4CCc5ccccc5C4)cc3)nc2c1C` shows inhibition equal to 82.2

The molecule listed as `Cc1cccc(/C=N/Nc2ccc3ccccc3n2)c1` shows inhibition equal to 101

The molecule listed as `CCOC(=O)Cc1csc(NC(=S)NC(=O)c2ccc(Cl)cc2)n1` shows inhibition equal to 77.7

The molecule listed as `COc1ccc(C(=O)NNC(=O)c2ccccn2)cc1` shows inhibition equal to 102

The molecule listed as `COc1cc(OC)c2cc(C(=O)N/N=C/c3ccccc3O)[nH]c2c1` shows inhibition equal to 95.8

The molecule listed as `O=C(N/N=C/c1cccs1)c1n[nH]c2c1CCCC2` shows inhibition equal to 99.5

The molecule listed as CCCCN(C)C(=O)c1ccc(Nc2nc(C(N)CCc3ccccc3)cs2)nc1 (configuration not stated) shows inhibition equal to 98.6

The molecule listed as `O=C(/C=C\Nc1ccc2c(c1)OCO2)c1ccccn1` shows inhibition equal to 102

The molecule listed as `Cc1ccc(-c2nc(C(Cl)Cl)c3ccccc3n2)cc1` shows inhibition equal to 96.2

The molecule listed as `Cc1csc(NC(=O)c2cn3ccccc3n2)n1` shows inhibition equal to 99

---

Overview of reported activity across a group of compounds:
Molecular target: Tumor necrosis factor receptor superfamily member 10B (Homo sapiens)
Assay: caspase-8 TRAIL sensitization, hit retest, confirmation, cell-based, NB7+caspase-8, with/without TRAIL, luminescence panel (AID 651596)
Settings: NB7 neuroblastoma + caspase-8, TRAIL sensitization, luminescence viability, with TRAIL, mean of runs, at 10 µM, stronger effect = higher value
Give the value in % but do not write % after it.

A selection of reference data follows.
{"compound": "C(=N\\Nc1nncc2ccccc12)/c1ccccn1", "target_or_test_system": "Tumor necrosis factor receptor superfamily member 10B (Homo sapiens)", "unit_abbrev": "%", "activity": 78.7}
{"compound": "COc1cc(OC)nc(Nc2nc(C(N)Cc3ccc(C(F)(F)F)cc3)cs2)n1 (stereo unspecified)", "target_or_test_system": "Tumor necrosis factor receptor superfamily member 10B (Homo sapiens)", "unit_abbrev": "%", "activity": 33.2}
{"compound": "Cc1ccccc1C(=O)Nc1ccc2c(c1)OCCO2", "target_or_test_system": "Tumor necrosis factor receptor superfamily member 10B (Homo sapiens)", "unit_abbrev": "%", "activity": 61.1}
{"compound": "Cc1ccc2nc(-c3ccc(NC(=O)CCS(=O)(=O)c4ccccc4)cc3)sc2c1", "target_or_test_system": "Tumor necrosis factor receptor superfamily member 10B (Homo sapiens)", "unit_abbrev": "%", "activity": 87.5}
{"compound": "Fc1ccc(-n2nnc(-c3cnc4ccccc4c3)n2)cc1", "target_or_test_system": "Tumor necrosis factor receptor superfamily member 10B (Homo sapiens)", "unit_abbrev": "%", "activity": 70.8}
{"compound": "COc1ccc(/C=N/Nc2cc(C)nc(-n3nc(C)cc3C)n2)c(OC)c1", "target_or_test_system": "Tumor necrosis factor receptor superfamily member 10B (Homo sapiens)", "unit_abbrev": "%", "activity": 6.72}
{"compound": "COc1ccc(/C(N)=N/OC(=O)c2ccc3ccccc3c2)cc1OC", "target_or_test_system": "Tumor necrosis factor receptor superfamily member 10B (Homo sapiens)", "unit_abbrev": "%", "activity": 99}
{"compound": "Nc1nc2ccccc2n1C(=O)c1ccc(F)cc1", "target_or_test_system": "Tumor necrosis factor receptor superfamily member 10B (Homo sapiens)", "unit_abbrev": "%", "activity": 91.5}
{"compound": "COc1cccc(NC(=O)c2cc3ccccc3o/c2=N\\O)c1", "target_or_test_system": "Tumor necrosis factor receptor superfamily member 10B (Homo sapiens)", "unit_abbrev": "%", "activity": 65}
{"compound": "CCCOc1ccc(-c2cn3ccccc3n2)cc1", "target_or_test_system": "Tumor necrosis factor receptor superfamily member 10B (Homo sapiens)", "unit_abbrev": "%", "activity": 92.7}

The measured activity that `Cc1cc(C(=O)CSc2nnc(N)s2)c(C)n1Cc1cccs1` showed for Tumor necrosis factor receptor superfamily member 10B (Homo sapiens) is 72.5

The measured activity that `Cc1nc2ccc(-c3nc4cc(N)ccc4o3)cc2[nH]1` showed for Tumor necrosis factor receptor superfamily member 10B (Homo sapiens) is 59.7

The measured activity that Cc1ccc(C2=NN(C(=O)CCl)C(c3ccco3)C2)o1 (stereo unspecified) showed for Tumor necrosis factor receptor superfamily member 10B (Homo sapiens) is 98.5

The measured activity that `O=C(Nc1ccc(OCC(F)(F)C(F)F)c(C(F)(F)F)c1)c1ccccc1O` showed for Tumor necrosis factor receptor superfamily member 10B (Homo sapiens) is 67.8

The measured activity that `COC(=O)CSc1nc2cc(OC)ccc2cc1C#N` showed for Tumor necrosis factor receptor superfamily member 10B (Homo sapiens) is 75.6

The measured activity that `CC(C)Nc1ccc(-n2nc3ccccc3[n+]2[O-])cc1` showed for Tumor necrosis factor receptor superfamily member 10B (Homo sapiens) is 62.5

The measured activity that `O=C(N/N=C/c1ccc2ncccc2c1)c1ccco1` showed for Tumor necrosis factor receptor superfamily member 10B (Homo sapiens) is 75.7

The measured activity that CCC1=NN(C(=O)c2cccc(Br)c2)C(O)(c2ccc(Br)cc2)C1 (stereo unspecified) showed for Tumor necrosis factor receptor superfamily member 10B (Homo sapiens) is 19.9

The measured activity that `COc1ccc(-c2cc(=O)c3ccccc3s2)cc1` showed for Tumor necrosis factor receptor superfamily member 10B (Homo sapiens) is 61.2

The measured activity that N/C(=N\OC(=O)c1ccccc1)C(Cc1ccccc1)C(=O)NOC(=O)c1ccccc1 (stereo unspecified) showed for Tumor necrosis factor receptor superfamily member 10B (Homo sapiens) is 98

The measured activity that `COc1cc(/C=C(/C#N)c2nc3ccccc3[nH]2)ccc1OCC(=O)Nc1ccccc1C` showed for Tumor necrosis factor receptor superfamily member 10B (Homo sapiens) is 86
